System: Mus musculus
Run Description: Antimalarial activity tested against trophozoite induced Plasmodium berghei in mice (Mus musculus) expressed as change in mean survival time after a single dose of 10 mg/kg (subcutaneously)
Format: functional
Condition Parameters: route subcutaneous
Decide using Delta MST alone. Strictly below 5 days: t. Equal to or above 5 days: f.

Check out these entries, answers already filled in.
Compound	Group
CCc1cc(Nc2ccnc3cc(Cl)ccc23)cc(CN(CC)CC)c1O	f
CCC(C)c1cc(Nc2cc[n+]([O-])c3cc(Cl)ccc23)cc(CN(CC)CC)c1O (stereo not given)	t
CCN(CC)Cc1cc(Nc2ccnc3cc(Cl)ccc23)cc(C)c1O	f
CCN(CC)Cc1cc(Nc2cc[n+]([O-])c3cc(Cl)ccc23)cc(C)c1O	t
CCN(CC)Cc1cc(Nc2ccnc3cc(Cl)ccc23)c2c(c1O)CCCC2	f
CCN(CC)Cc1cc(Nc2cc[n+]([O-])c3cc(Cl)ccc23)cc(C(C)(C)C)c1O	t

Dear reviewer, please state whether CCc1cc(Nc2cc[n+]([O-])c3cc(Cl)ccc23)cc(CN(CC)CC)c1O has Delta MST strictly beneath 5 days.
t

====

Reported Delta MST values for a set of compounds
System: Plasmodium berghei
Run Description: Change in mean survival time of trophozoite-induced Plasmodium berghei infection after 40 mg/kg subcutaneous dose
Assay type: functional
Quick note: give the figure in days, leave out the unit.

Take a look at these entries with their results.
Compound	Delta MST, days
CCN(CC)Cc1cc(Nc2ccnc3cc(Cl)ccc23)cc(Sc2ccc(Cl)cc2)c1O	7.3
CCC(C)c1cc(Nc2ccnc3cc(Cl)ccc23)cc(CN(CC)CC)c1O (stereo not drawn)	27.7
CCN(CC)Cc1cc(Nc2cc[n+]([O-])c3cc(Cl)ccc23)cc(C(C)C)c1O	15.5

Any idea what its Delta MST is? The compound is CCN(CC)Cc1cc(Nc2cc[n+]([O-])c3cc(Cl)ccc23)cc(Sc2ccc(Cl)cc2)c1O
4.1

For the compound shown here, CCc1cc(Nc2cc[n+]([O-])c3cc(Cl)ccc23)cc(CN(CC)CC)c1O , give the reported Delta MST.
13.2

Field request: Delta MST | item: CCN(CC)Cc1cc(Nc2cc[n+]([O-])c3cc(Cl)ccc23)cc(C)c1O
14.3

Could you tell me which Delta MST is on file for CCN(CC)Cc1cc(Nc2ccnc3cc(Cl)ccc23)ccc1O.Cl ?
11.9

If you can, please state the reported Delta MST value of CCN(CC)Cc1cc(Nc2ccnc3cc(Cl)ccc23)cc(C2CCCCC2)c1O .
5.7

====

Collected Cures values appear next to each entry.
Test system: Mus musculus
Run Description: Number of mice surviving at 60 days postinfection when administered as a single dose of 160 mg/kg (sc) 72-h post infection (delta MST)
Format: functional
API note: the answer field is a bare number with no unit suffix.

Molecule	Cures
CCN(CC)Cc1cc(Nc2cc[n+]([O-])c3cc(Cl)ccc23)cc(C)c1O	3

Quick check: Cures of CC(C)(C)NCc1cc(Nc2ccnc3cc(Cl)ccc23)cc(-c2ccc(Cl)cc2)c1O ?
2

Could you share which Cures value was measured for CCN(CC)Cc1cc(Nc2ccnc3cc(Cl)ccc23)c2c(c1O)CCCC2 ?
2

I have this molecule here, CCC(C)c1cc(Nc2cc[n+]([O-])c3cc(Cl)ccc23)cc(CN(CC)CC)c1O (stereo not given) , and I need its recorded Cures.
2

What does the record list as Cures for CCC(C)c1cc(Nc2ccnc3cc(Cl)ccc23)cc(CN(CC)CC)c1O (stereo not given) ?
1

Look at this molecule and give its reported Cures. CCN(CC)Cc1cc(Nc2ccnc3cc(Cl)ccc23)cc(C)c1O
4

Would you kindly share the measured Cures for CCc1cc(Nc2cc[n+]([O-])c3cc(Cl)ccc23)cc(CN(CC)CC)c1O ?
2

Dear colleague, I am looking for the recorded Cures of the following molecule: CCN(CC)Cc1cc(Nc2cc[n+]([O-])c3cc(Cl)ccc23)cc(C(C)C)c1O
1

I am curious: what Cures value has been reported for CCc1cc(Nc2ccnc3cc(Cl)ccc23)cc(CN(CC)CC)c1O ?
4

Requested field: Cures. Item: CCN(CC)Cc1cc(Nc2cc[n+]([O-])c3cc(Cl)ccc23)cc(C2CCCCC2)c1O
3
